B1: Pistol ribozyme (parent)
chain: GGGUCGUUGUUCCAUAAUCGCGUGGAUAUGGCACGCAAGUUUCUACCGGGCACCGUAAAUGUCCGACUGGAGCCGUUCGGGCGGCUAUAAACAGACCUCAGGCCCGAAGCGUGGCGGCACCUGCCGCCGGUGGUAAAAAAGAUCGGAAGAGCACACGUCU

# Variants of: B1
# EXPERIMENT_DESCRIPTION: aptazyme ON/OFF ratio, guanine; higher = stronger switching; co-transcriptional cleavage with and without guanine
Overview of reported aptazyme ON/OFF ratio across a group of variants:
MEASURED_METRIC: aptazyme ON/OFF ratio

INSERT INTO assay_data (variant_spec, value_observed) VALUES
  ('U7G U8C G9C U10A U11A C12U C13G', 1.09),
  ('U7C U8A U11G C12U C13A', 1.29),
  ('U7G U8A G9A U11G C12U', 1.44),
  ('U8A G9C U10G U11A C12U C13G', 1.11),
  ('U7C G9A C13A', 1.05),
  ('U7G U8G G9U U10G C12U C13G', 1.21),
  ('U7G U8C G9U U11C C12G C13G', 1.32),
  ('U7G U10A C12G C13A', 1.15),
  ('U7G U8A G9A U10A U11A C12U C13A', 1.15),
  ('U8C G9C U10A U11C C12A C13G', 1.18),
  ('U7A U8A G9U U11G C12A C13U', 1.22),
  ('U7C U8A G9C U10G U11A C13U', 1.04),
  ('U7A U10C U11G C13A', 1.24),
  ('U7C G9C U11G', 1.06),
  ('U8C U11G C12A', 1.15),
  ('U8A G9U U10C U11A C12U C13G', 1.1),
  ('G9A U10G C12G', 1.24),
  ('U7A U8G G9U U10C U11G C12G', 1.45),
  ('U8G G9U U10G U11G C12U C13A', 1.09),
  ('U7C U8A U10A U11C C12U C13U', 1.04),
  ('U7C U8A G9C U10G U11A', 1.05),
  ('U8C G9A U10A U11A C12U', 1.35),
  ('U7G U10A U11A C12U C13U', 1.16),
  ('U7A U8C G9A U10C U11C C12A C13A', 1.08),
  ('U7C U8G G9C U10A U11C C12A', 1.19),
  ('U7G U8G G9A U10A U11C C13U', 1.05),
  ('G9A U11A C12U C13G', 1.33),
  ('U7C G9A U10G U11C', 1.08),
  ('U8G G9A U10G U11A C12G C13A', 1.21),
  ('U7G G9A U10C U11C C12A C13U', 1.12),
  ('U7A G9C U10A U11G C12U C13A', 1.03),
  ('U7A U8G G9U U10G U11A C13U', 1.14),
  ('U7C U8A G9A U10A C12G', 1.21),
  ('U7G U8C G9C U11G C12G C13G', 1.12),
  ('U7G U8G G9U U10G C12A C13A', 1.09),
  ('U7A U8C U10G U11C C12A C13A', 1.34),
  ('U7C U8A G9C U10C U11A C12A C13A', 1.07),
  ('U7A U8A G9C U10A U11C C12A C13G', 1.12),
  ('U7C U8C U11A C12U C13G', 1.13),
  ('G9C U10A U11A C12G', 1.5),
  ('G9C U10G C12A C13U', 1.32),
  ('U7G U8C G9C U10G U11A C12G', 1.17),
  ('U7C U10A U11G C12G C13G', 1.16),
  ('U7G U8C G9C U10C C12A C13A', 1.08),
  ('U7G U8G G9C U10A U11G C12U', 1.12),
  ('U7A U8A G9U U10A C12G C13U', 1.3);
